The following compounds are shown together with reported IC50 values.
# Experimental protocol: Cytotoxicity of compound was determined against rat L-6 cells
# Format: functional, cell-based
# Measurement conditions: L6

See these solved cases before continuing.
[[record]]
chemical_string = "CCOC(=O)/C(C#N)=C/c1ccc(/C=C/c2ccccn2)cc1"
recorded_result = "> 296 µM"

[[record]]
chemical_string = "COC(=O)N[C@H](C(=O)OC)[C@H](O)[C@@H](C)c1c(C)nc2n(C)c3ncn(Cc4ccccc4)c3c(=O)n12"
recorded_result = "181 µM"

[[record]]
chemical_string = "CCn1ncc2c1n/c(=N\\c1ccccc1)n1ccc3ccccc3c21"
recorded_result = "> 265 µM"


Query :: If you can, please state the reported IC50 value of O=c1[nH]c(=O)n([C@H]2C[C@H](O)[C@@H](CO)O2)c2nc(-c3ccccc3)c(-c3ccccc3)nc12 .
Result :: 208 µM
